Listed below: normalized growth values for each entry.
- protocolDetails: chemical genetic growth profiling, strain panel (AID 1159580);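 further: tested at 20 µM; growth read once vehicle control cultures reached saturation at 30 °C; 1 = growth at the plate median or of vehicle wells; lower values mean less growth of the strain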
- runConditions: S. cerevisiae deletion strains, growth OD, locus YNL175C, strain NOP13, hits give low values
About 2,000 (36%) of roughly 5,500 compounds were called active. Another 18% or so got no clear call; they are omitted. The list shows a part of the results.
In your answer, state the number alone without any accompanying words.

For orientation, consider the following solved cases.
>  <molecule>
Cc1nc2c(OCc3ccccc3)cccn2c1CC#N

>  <normalized growth>
0.991

$$$$
>  <molecule>
CCCCOc1cc(CC2CNC(=O)N2)ccc1OC (stereo unspecified)

>  <normalized growth>
1.02

$$$$
>  <molecule>
COc1ccc2c(c1OC)C(=O)O[C@@H]2[C@H]1c2c(cc3c(c2OC)OCO3)CCN1C

>  <normalized growth>
1

$$$$
>  <molecule>
CO[C@H]1CC=C2CCN3CCC4=C(CC(=O)OC4)[C@]23C1

>  <normalized growth>
1.01

$$$$
>  <molecule>
CNCCC=C1c2ccccc2CCc2ccccc21

>  <normalized growth>
1

$$$$

Problem: Return value of normalized growth for input O=c1[nH]c(=O)n([C@H]2C[C@H](O)[C@@H](CO)O2)cc1/C=C/Br , no commentary.
Solution: 0.964

Problem: Give the reported normalized growth for this molecule. CN1CCc2ccccc2Cc2[nH]c3ccccc3c2CC1
Solution: 1.01

Problem: // Input: N[C@@H](Cn1cc(I)c(=O)[nH]c1=O)C(=O)O . Output its normalized growth only.
Solution: 0.993

Problem: Recall and state the measured normalized growth for N#CC(C#N)=Cc1ccc([N+](=O)[O-])c(O)c1 .
Solution: 0.953

Problem: Recall and state the measured normalized growth for C[C@@H]1C(=O)NC2=Nc3cccc(Cl)c3CN21 .
Solution: 0.992

Problem: Note normalized growth for the molecule shown: NCCNC(=O)Cc1ccc(NC(=O)Cc2ccc(Nc3ncnc4c3ncn4[C@@H]3O[C@H](CO)[C@H](O)C3O)cc2)cc1 (stereo partly specified)
Solution: 1.01

###

- protocolDetails: chemical genetic growth profiling, strain panel (AID 1159580);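 further: tested at 20 µM; growth read once vehicle control cultures reached saturation at 30 °C; 1 = growth at the plate median or of vehicle wells; lower values mean less growth of the strain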
- runConditions: S. cerevisiae deletion strains, growth OD, locus YDR195W, strain ref2
Among all 5,500 compounds or so, about 2,000 (36%) were called active. Another 18% or so got no clear call; they are omitted. Cut-off read from the data, not from the text of the source: active = normalized growth mostly below about 0.91 (no sharp cut-off); inconclusive = no clear call, values can overlap the other calls; inactive = mostly above about 0.92. This is one part of the list.
Outcome (select one): active, inactive

Problem: What did this assay record as the result for CN(C)CCC=C1c2ccccc2C=Cc2ccccc21 ?
Solution: inactive

Problem: For CC(C)=CCc1c2c(c(O)c3c(=O)c(O)c(-c4ccccc4)oc13)C=CC(C)(C)O2 , what call appears in the results of this test?
Solution: inactive

Problem: Record request — test call for Cn1c(=O)c2[nH]c(C3CCCC3)nc2n(C)c1=O
Solution: inactive

Problem: What call does the record list for O=C(O)c1cn(-c2ccc(F)cc2)c2cc(N3CCNCC3)c(F)cc2c1=O ?
Solution: inactive

Problem: Dear colleague, could you share the recorded outcome for Cc1cc2cc3c(C)cc(=O)oc3c(C)c2o1 when you have a moment?
Solution: active

Problem: # lookup: test call for O=C(O)c1cc(=O)c2ccccc2o1
Solution: inactive

Problem: How was S=c1ccss1 classified in this test?
Solution: inactive

###

- protocolDetails: chemical genetic growth profiling, strain panel (AID 1159580);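 further: tested at 20 µM; growth read once vehicle control cultures reached saturation at 30 °C; 1 = growth at the plate median or of vehicle wells; lower values mean less growth of the strain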
- runConditions: S. cerevisiae deletion strains, growth OD, locus YNL128W, strain TEP1
In all, about 5,500 compounds went through this assay and about 2,000 (36%) were called active. Inconclusive results (about 18%) are left out. No stated cut-off is given here; in the data, active means normalized growth mostly below about 0.91 (no sharp cut-off); inconclusive means no clear call, values can overlap the other calls; inactive means mostly above about 0.92. This is one part of the list.
Hello, when you answer, please use one of the following outcomes: active, inactive

Worked cases, answers included:
>  <molecule>
COc1ccc2c(=O)cc(-c3ccccc3OC)oc2c1

>  <answerLabel>
active

$$$$
>  <molecule>
CCCCCCCCCc1ccc(O)cc1

>  <answerLabel>
active

$$$$
>  <molecule>
COc1cccc(-c2cc(=O)c3ccc(OC)cc3o2)c1

>  <answerLabel>
inactive

$$$$
>  <molecule>
CC(=O)O[C@H]1C[C@@]2(C)[C@H](c3ccoc3)OC(=O)[C@H]3O[C@]32[C@@]2(C)C1[C@]1(C)C(C[C@H]2OC(C)=O)C(C)(C)[C@H](OC(C)=O)C[C@@H]1OC(C)=O (stereo not given in full)

>  <answerLabel>
inactive

$$$$

# input for lookup
Problem: Identify the outcome logged in this assay for the molecule shown: CCCCCC[C@@H]([C@@H](C)O)n1cnc2c(N)ncnc21
Solution: inactive

Reference source: PubChem BioAssay AID1159580
